Test system: SF-268
protocol: NCI tumour cell line growth inhibition, 48 h
The source made the active and inactive calls. Cut-off read from the data, not from the text of the source: active = GI50 up to about 1.1 µM and inactive = higher.
Write down the outcome that applies. Available outcomes: active, inactive

// below: answered molecules
N=C(N)N/N=C(/CCN1CCCC1)CC(c1ccccc1)c1c(O)c2ccccc2oc1=O (centres undefined) : inactive
O=C(CCCN1CCC2(CC1)OC(=O)N(c1ccccc1)C2=O)c1ccccc1 : inactive
O=C1c2ccccc2C(=O)N1CC1S(=O)(=O)OCCOS1(=O)=O : inactive
Cc1[nH]n(-c2nc(-c3ccccc3)cc(=O)[nH]2)c(=O)c1CCO : inactive
COC(=O)[C@]1(c2cc3ccccc3[nH]2)CC2CN(CC(=O)N(C)OC)C1C1OC(C)(C)OC21 (some centres undefined) : inactive

Hello, I am checking results. What call was entered for CC(C)CCC[C@@H](C)[C@H]1CC[C@H]2[C@@H]3CC=C4CC(OCCCCN(O)CCCSC5OC(CO)C(O)C(O)C5O)CC[C@]4(C)[C@H]3CC[C@]12C (some centres undefined) ?
inactive

Could you kindly confirm the outcome this assay logged for "O=c1oc2ccc(Cl)cc2cc1-c1cn2cc(Cl)ccc2n1" ?
inactive

Name the outcome recorded for "CC[C@H](CO)Nc1nc(NCc2ccccc2)c2ncn(C(C)C)c2n1" in the assay.
inactive

Field: outcome | Entry: CC(C)=CC[S+]([O-])c1ccccc1NC1=CC(=O)CC(C)(C)C1 (centres undefined)
inactive

// return assay outcome for "COc1cc(Nc2cc(Cl)cc(Cl)c2)nc(N)n1"
inactive

For CCCCCCCC/C=C1\CCC(CN2CCOCC2)C1=O (centres undefined) , which call appears in the assay record?
inactive

Field: outcome | Entry: CN(C)CC1CCCC/C1=N/OC(=O)c1ccc(Cl)cc1 (centres undefined)
inactive

Record lookup: outcome of this test for CC(=O)Nc1ccc(C(=O)NN2C(=O)C(Cl)C2c2cc(Br)cc(Br)c2O)cc1 (centres undefined) ?
inactive

Answer briefly: the call reported for "CCCCCCCCCOC(=S)NCCCCC" in this assay.
inactive

Assay result, entry O=C1/C(=C/c2cccs2)NC(=S)N1CN1CCCC(CO)C1 (centres undefined) — outcome?
inactive

Hi, do you know how "Cc1oc2nc(N(C)C)nc(Cl)c2c1C" came out in this test?
inactive

Hey, what did the test say about "COc1ccc2nc3cccc([N+](=O)[O-])c3c(NCCO)c2c1" ?
active

Which outcome did this test record for the molecule "O=P1(Oc2ccc(Cl)cc2Cl)Oc2cc3ccccc3cc2O1" ?
inactive

What outcome does the record of this test show for "NCCCN(CCCCN(CCCN)C(=O)OCc1ccccc1)C(=O)OCc1ccccc1" ?
inactive

Record request — test call for "COC(=O)/C([Se]c1c(C)cc(C)cc1C)=C(/[Se]c1c(C)cc(C)cc1C)C(=O)OC"
inactive

Test call for this molecule, please: "COc1cc(OC)cc(-c2cc(=O)c3c(OC)c(OC)c(OC)c(OC)c3o2)c1"
inactive

Please indicate how the test categorized "CCOP(=O)(OCC)/C(C#N)=C/c1cccn1C" .
inactive

Answer briefly: the call reported for CC1OC(O)CC(N(C)C)C1O.CC1OC(O)CCC1O.CCC1CC(O)c2c(O)c3c(c(O)c2C1O)C(=O)c1cccc(O)c1C3=O (centres undefined) in this assay.
active

Identify the outcome logged in this assay for the molecule shown: "Cc1ccc(S(=O)(=O)N(CCNC(=O)c2cccc(O)c2O)c2cc3c4c(c2)Oc2cccc5c2C4(C)c2c(cccc2O3)O5)cc1"
inactive

Which outcome was entered for the molecule "O=C(O)c1cscc1Cc1cccs1" in this test?
inactive

====

Let's look at some compounds and their measured GI50.
Test system: PC-3
protocol: NCI tumour cell line growth inhibition, 48 h
Active and inactive are the calls of the source. No stated cut-off is given here; in the data, active = GI50 up to about 1.1 µM and inactive = higher.

The cases that follow already have their GI50 on record.
COC(=O)[C@]1(c2cc3ccccc3[nH]2)CC2CN(CC(=O)N(C)OC)C1C1OC(C)(C)OC21 (stereo not given in full) : 42.5 µM (inactive)
CCCC(=O)N1CCN(c2ccc3c(c2)OC(C)O3)CC1 (stereo not given) : > 100 µM (inactive)
Cc1ccc(/N=N/c2c(O)c(C(=O)O)cc3ccccc23)c(S(=O)(=O)O)c1 : > 100 µM (inactive)
O=C1CC2(CCNCC2)C(=O)N1N1CCCCC1 : > 100 µM (inactive)

# input for lookup
Please report the recorded GI50 for "O=C(O)CCN(CCC(=O)O)c1ccc(/C=C2\SC(=S)NC2=O)cc1" .
> 100 µM (inactive)

====

Test system: COLO 205
protocol: NCI tumour cell line growth inhibition, 48 h
Calls of active or inactive are those of the source. Cut-off read from the data, not from the text of the source: active = GI50 up to about 1.1 µM and inactive = higher.
Listing: GI50 of selected molecules

O=C1/C(=C/c2n[nH]cc2-c2ccc(Cl)cc2)C(=O)N(c2ccccc2)C1c1ccccc1 (stereo not drawn) : 14.2 µM (inactive)

Which GI50 value belongs to "COc1ccc(OC)c(NCC#N)c1" ?
> 100 µM (inactive)

Please give the measured GI50 for this molecule: "CO/N=C(\C)c1cccc(Nc2nc3ccccc3c3occc23)c1"
12.1 µM (inactive)

====

System: OVCAR-5
protocol: NCI tumour cell line growth inhibition, 48 h
The source made the active and inactive calls. Cut-off read from the data, not from the text of the source: active = GI50 up to about 1.1 µM and inactive = higher.
API: response.call in T = active, F = inactive

O=[N+]([O-])c1cccc(-c2nc(-c3ccccc3)c(-c3ccccc3)[nH]2)c1 : F
O=c1oc2ccc(Cl)cc2cc1-c1cn2cc(Cl)ccc2n1 : F
COc1ccc(/C=C2\CCC(CCN3CCOCC3)C2=O)cc1 (configuration not stated) : F

Just curious, what result did "Cn1c(=O)n2c(-c3ccccc3)c(-c3ccccc3)n2c1=O" get here?
F

Assay result, entry "Cn1c(=O)nc2n(-c3ccc(Br)cc3)c3ccccc3nc-2c1=O" — outcome?
F

Recorded test outcome, item CCCCCCCCCCOC1C(C(C)OCCCN(C)C)OC2OC3(CCCCC3)OC21 (configuration not stated)
F

Give the logged outcome of this assay for the following compound: CC1=C(CCC(C)CO)O[C@H]2C[C@H]3[C@@H]4CC[C@H]5C[C@@H](O)CC[C@]5(C)[C@H]4CC(=O)[C@]3(C)[C@@H]12 (some centres not stated)
F

====

System: HL-60
protocol: NCI tumour cell line growth inhibition, 48 h
Calls of active or inactive are those of the source. No stated cut-off is given here; in the data, active = GI50 up to about 1.1 µM and inactive = higher.
The reply should name one outcome from active, inactive

Solved entries:
Cc1c(-c2ccc(-c3ccccc3F)cc2)nc2ccc(F)cc2c1C(=O)O [BREQUINAR SODIUM] : active
COc1cc(OC)c2c(c1)C(=O)C(CC1(C)OCCCO1)=CC2=O : inactive
O=c1oc2ccc(Cl)cc2cc1-c1cn2cc(Cl)ccc2n1 : inactive
CCCCCCCC/C=C1\CCC(CN2CCOCC2)C1=O (stereo not drawn) : inactive
O=c1cccccc1NCCCCCCCNc1cccccc1=O : inactive
COc1ccc(Cc2nc3cc(Cl)ccc3o2)cc1 : inactive
O=C1C(c2ccccc2)=[N+]([O-])c2cc([N+](=O)[O-])c(/C(Cl)=C/c3ccccc3)cc21 : inactive
O=C1C(Cl)N(c2cccc([N+](=O)[O-])c2)C1c1c[nH]c2ccccc12 (stereo not drawn) : inactive
Oc1c(CN2CCOCC2)ccc(CN2CCOCC2)c1O : inactive
COc1ccc(NC(=O)C2C(=O)N(c3ccc(OC)cc3)C(=O)/C2=N\N)cc1 (stereo not drawn) : inactive

Let's switch to this molecule now.
In this assay, the call recorded for CC(C)=CC[S+]([O-])c1ccccc1NC1=CC(=O)CC(C)(C)C1 (stereo not drawn) was what?
inactive

====

System: NCI/ADR-RES
protocol: NCI tumour cell line growth inhibition, 48 h
Calls of active or inactive are those of the source. Cut-off read from the data, not from the text of the source: active = GI50 up to about 1.1 µM and inactive = higher.
Reported GI50 values for a set of compounds

Some solved entries appear below for comparison.
CCN(CCO)CC1COc2ccccc2O1 (centres undefined) : > 100 µM (inactive)
COc1ccc(-c2nc(O)c3ccccc3n2)cc1 : 27.1 µM (inactive)
Cc1ccc(/N=N/c2ccc(O)c(CN(C)C)c2)cc1C : 16 µM (inactive)
Cc1ccc(Cc2n[nH]c(=O)[nH]2)cc1 : > 100 µM (inactive)
CC1=CC(=O)c2ccc(C)cc2C1=O : 10.4 µM (inactive)

Endpoint output: GI50 of CC1SC(=O)SC1C (centres undefined) . Value?
> 100 µM (inactive)

Entry under review: "C=CCOC(=O)C1=C(CCC[C@@H](C)O[Si](C)(C)C(C)(C)C)N=C(N)N2[C@H](CCO)CC[C@@H]12" . Reported GI50?
19.7 µM (inactive)

Field request: GI50 | item: CC(C)=CC[S+]([O-])c1ccccc1NC1=CC(=O)CC(C)(C)C1 (centres undefined)
> 100 µM (inactive)

====

Tested on: SW-620
protocol: NCI tumour cell line growth inhibition, 48 h
The source made the active and inactive calls. Rule as the data show it: active = GI50 up to about 1.1 µM and inactive = higher.
Your reply should match one of these outcome classes. active, inactive

CCCCCCCCCCCCOCCCCCCCCC/C=C/c1ccc2c(c1)OCCOCCOCCOCCO2 : inactive
Oc1c(CN2CCOCC2)ccc(CN2CCOCC2)c1O : inactive

Which outcome was assigned to Cc1c(-c2ccc(-c3ccccc3F)cc2)nc2ccc(F)cc2c1C(=O)O [BREQUINAR SODIUM] in this test?
active

Assay result, entry "Nn1c(Sc2nc3ccccc3c(=O)n2N)nc2ccccc2c1=O" — outcome?
inactive

Would you mind telling me which call this test gave "O=P1(Oc2ccc(Cl)cc2Cl)Oc2cc3ccccc3cc2O1" ?
inactive

Lab log entry: N#CC(OC1OC(COC2OC(CO)C(O)C(O)C2O)C(O)C(O)C1O)c1ccccc1 (stereo unspecified) — outcome as called in the assay?
inactive

Which result was noted for this compound in the test: "Fc1ccc(Nc2nc(Cl)c3nc[nH]c3n2)cc1Cl"
inactive

What did this assay record as the result for NC(=O)c1csc(C2OC(CO)C(O)C2O)n1 (stereo unspecified) ?
inactive

Each compound tested received a call. Report the one for CCCCCCCC/C=C1\CCC(CN2CCOCC2)C1=O (stereo unspecified) .
inactive

What did the test return for CC(=O)N(CN1C(=O)CCC1C(=O)O)c1ccccc1Cl (stereo unspecified) ?
inactive
